- Test details: In Vitro Stability Assay—Mouse Plasma
- Assay type: in vitro ADME
- Test settings: attachment position L11B; before plasma incubation
*1 amine or outer side, *2 acyl side, *3 side chain or, on linkers, in order; H or OH if unused. Where a SMILES comes first, the peptide text is derived from it. [ ]: non-standard residue; d: D form. The star is where a group is joined. Dolaproine = CO[C@@H]([C@@H]1CCCN1)[C@@H](C)C(=O)O; Dil = CC[C@H](C)[C@H](NC)[C@@H](CC(=O)O)OC; PABC = O=C(OCc1ccc(N[*:1])cc1)[*:2]; Doe = c1ccc(C[C@H](N*)c2nccs2)cc1; Cit = NC(=O)NCCC[C@H](N)C(=O)O; Aib = CC(C)(N)C(=O)O; CO = O=C([*:1])[*:2]
Reported DAR is given for each of the following compounds.
Please give the numeric answer without any surrounding text.

As a guide, the following entries are already answered.
CC[C@H](C)[C@@H]([C@@H](CC(=O)N1CCC[C@H]1[C@H](OC)[C@@H](C)C(=O)N[C@@H](Cc1ccccc1)c1nccs1)OC)N(C)C(=O)[C@@H](NC(=O)C(C)(C)NC(=O)OCc1ccc(NC(=O)[C@H](CCCNC(N)=O)NC(=O)[C@@H](NC(=O)[C@H](CCCCN)NC(=O)[C@@H](C)N)C(C)C)cc1)C(C)C [Example 35] (H-[dA]KV[Cit][PABC][Aib]V[Dil][Dolaproine]-Doe) ... 1.82
CC[C@H](C)[C@@H]([C@@H](CC(=O)N1CCC[C@H]1[C@H](OC)[C@@H](C)C(=O)N[C@@H](Cc1ccccc1)c1nccs1)OC)N(C)C(=O)[C@@H](NC(=O)C(C)(C)NC(=O)OCc1ccc(NC(=O)[C@H](CCCNC(N)=O)NC(=O)[C@@H](NC(=O)[C@H](CCCCN)NC(=O)CNC(C)=O)C(C)C)cc1)C(C)C [Example 37] (Ac-GKV[Cit][PABC][Aib]V[Dil][Dolaproine]-Doe) ... 1.94

// DAR value for CC[C@H](C)[C@@H]([C@@H](CC(=O)N1CCC[C@H]1[C@H](OC)[C@@H](C)C(=O)N[C@@H](Cc1ccccc1)c1nccs1)OC)N(C)C(=O)[C@@H](NC(=O)C(C)(C)NC(=O)OCc1ccc(NC(=O)[C@H](CCCNC(N)=O)NC(=O)[C@@H](NC(=O)[C@H](CCCCN)NC(=O)NC)C(C)C)cc1)C(C)C [Example 26] ({NHMe-CO}-KV[Cit][PABC][Aib]V[Dil][Dolaproine]-Doe) : 1.92

----------
- Test details: In Vitro Stability Assay—Mouse Plasma
- Format: in vitro ADME
- Test settings: attachment position L11B; before plasma incubation
*1 amine or outer side, *2 acyl side, *3 side chain or, on linkers, in order; H or OH if unused. Where a SMILES comes first, the peptide text is derived from it. [ ]: non-standard residue; d: D form. The star is where a group is joined. Dolaproine = CO[C@@H]([C@@H]1CCCN1)[C@@H](C)C(=O)O; Dil = CC[C@H](C)[C@H](NC)[C@@H](CC(=O)O)OC; PABC = O=C(OCc1ccc(N[*:1])cc1)[*:2]; Doe = c1ccc(C[C@H](N*)c2nccs2)cc1; Glyceroyl(2S) = O=C([C@@H](O)CO)*; Cit = NC(=O)NCCC[C@H](N)C(=O)O; Aib = CC(C)(N)C(=O)O; Moc = COC(=O)*; X3 = NCCOCC*
Reported DAR is given for each of the following compounds.
Please give the numeric answer without any surrounding text.

As a guide, the following entries are already answered.
CC[C@H](C)[C@@H]([C@@H](CC(=O)N1CCC[C@H]1[C@H](OC)[C@@H](C)C(=O)N[C@@H](Cc1ccccc1)c1nccs1)OC)N(C)C(=O)[C@@H](NC(=O)C(C)(C)NC(=O)OCc1ccc(NC(=O)[C@H](CCCNC(N)=O)NC(=O)[C@@H](NC(=O)[C@H](COCCOCCN)NC(C)=O)C(C)C)cc1)C(C)C [Example 47] (Ac-S(X3)V[Cit][PABC][Aib]V[Dil][Dolaproine]-Doe) ... 1.96
CC[C@H](C)[C@@H]([C@@H](CC(=O)N1CCC[C@H]1[C@H](OC)[C@@H](C)C(=O)N[C@@H](Cc1ccccc1)c1nccs1)OC)N(C)C(=O)[C@@H](NC(=O)C(C)(C)NC(=O)OCc1ccc(NC(=O)[C@H](CCCNC(N)=O)NC(=O)[C@@H](NC(=O)[C@H](CCCCN)NC(=O)[C@@H](O)CO)C(C)C)cc1)C(C)C [Example 42] ({Glyceroyl(2S)}-KV[Cit][PABC][Aib]V[Dil][Dolaproine]-Doe) ... 1.87

Then this compound:
// DAR value for CC[C@H](C)[C@@H]([C@@H](CC(=O)N1CCC[C@H]1[C@H](OC)[C@@H](C)C(=O)N[C@@H](Cc1ccccc1)c1nccs1)OC)N(C)C(=O)[C@@H](NC(=O)C(C)(C)NC(=O)OCc1ccc(NC(=O)[C@H](CCCNC(N)=O)NC(=O)[C@@H](NC(=O)[C@H](CCCCN)NC(=O)OC)C(C)C)cc1)C(C)C [Example 32] (Moc-KV[Cit][PABC][Aib]V[Dil][Dolaproine]-Doe) : 1.53
